- Study Target: succinate dehydrogenase (SDH) (Botrytis cinerea, UniProt A0A384J5E4+A0A384J8V8+A0A384JHJ5)
- Sequence (A0A384J5E4 31-300): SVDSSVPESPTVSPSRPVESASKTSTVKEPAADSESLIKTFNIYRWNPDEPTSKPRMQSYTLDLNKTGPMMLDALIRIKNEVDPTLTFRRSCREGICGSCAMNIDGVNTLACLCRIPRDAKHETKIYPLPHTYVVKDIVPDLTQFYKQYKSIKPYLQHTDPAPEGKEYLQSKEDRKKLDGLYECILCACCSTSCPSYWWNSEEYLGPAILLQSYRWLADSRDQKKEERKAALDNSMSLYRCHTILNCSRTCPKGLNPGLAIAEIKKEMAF
- Sequence (A0A384J8V8 41-189): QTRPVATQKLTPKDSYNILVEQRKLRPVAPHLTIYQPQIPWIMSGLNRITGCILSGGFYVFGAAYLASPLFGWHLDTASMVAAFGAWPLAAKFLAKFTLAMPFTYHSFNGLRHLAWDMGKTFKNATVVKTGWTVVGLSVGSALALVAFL
- Sequence (A0A384JHJ5 55-192): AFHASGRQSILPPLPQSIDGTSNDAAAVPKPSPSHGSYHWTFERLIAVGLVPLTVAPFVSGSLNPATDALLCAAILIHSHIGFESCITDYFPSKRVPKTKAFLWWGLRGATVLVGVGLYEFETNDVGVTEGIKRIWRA
- Sequence (A0A384K456 41-647 partner): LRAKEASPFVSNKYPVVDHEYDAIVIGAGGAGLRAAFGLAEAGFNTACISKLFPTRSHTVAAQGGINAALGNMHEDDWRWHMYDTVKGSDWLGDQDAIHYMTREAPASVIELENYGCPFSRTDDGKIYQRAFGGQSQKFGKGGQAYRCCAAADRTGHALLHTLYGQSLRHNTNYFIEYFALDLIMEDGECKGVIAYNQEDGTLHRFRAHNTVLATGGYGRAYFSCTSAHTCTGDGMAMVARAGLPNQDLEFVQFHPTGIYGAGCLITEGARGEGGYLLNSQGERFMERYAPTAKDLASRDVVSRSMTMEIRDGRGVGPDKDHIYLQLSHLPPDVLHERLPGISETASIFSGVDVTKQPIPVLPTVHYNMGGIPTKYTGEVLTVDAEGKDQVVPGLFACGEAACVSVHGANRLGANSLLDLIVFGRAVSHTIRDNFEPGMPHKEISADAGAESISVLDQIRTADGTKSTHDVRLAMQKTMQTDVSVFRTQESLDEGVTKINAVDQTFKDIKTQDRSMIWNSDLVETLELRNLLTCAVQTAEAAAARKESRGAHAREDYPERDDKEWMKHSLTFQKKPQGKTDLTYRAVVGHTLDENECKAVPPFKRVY
- Assay Name: SDH assay kit on B. cinerea mitochondrial suspension, absorbance at […] nm
- Format: biochemical
- Test Conditions: read-out: IC50 / μM
Documented IC50 across a set of molecules
Respond with the figure and its unit, in that order.

O=C(Nc1ccccc1Nc1ccccc1)c1ccc(Cl)nc1 [3f]; 17.3 µM

Now turn to the next molecule.
Value sought: IC50, system succinate dehydrogenase (SDH) (Botrytis cinerea, UniProt A0A384J5E4+A0A384J8V8+A0A384JHJ5), item Cc1nc(C(F)(F)F)c(C(=O)Nc2c(Br)cc(OC(F)(F)F)cc2Br)s1 [thifluzamide] . Result: 14.4 µM
